Where do these numbers come from? They come from patent US10544147B2.

STUDY TARGET: PI3Kdelta (Homo sapiens (Human), UniProt O00329)
Sequence (O00329 whole entry, canonical isoform): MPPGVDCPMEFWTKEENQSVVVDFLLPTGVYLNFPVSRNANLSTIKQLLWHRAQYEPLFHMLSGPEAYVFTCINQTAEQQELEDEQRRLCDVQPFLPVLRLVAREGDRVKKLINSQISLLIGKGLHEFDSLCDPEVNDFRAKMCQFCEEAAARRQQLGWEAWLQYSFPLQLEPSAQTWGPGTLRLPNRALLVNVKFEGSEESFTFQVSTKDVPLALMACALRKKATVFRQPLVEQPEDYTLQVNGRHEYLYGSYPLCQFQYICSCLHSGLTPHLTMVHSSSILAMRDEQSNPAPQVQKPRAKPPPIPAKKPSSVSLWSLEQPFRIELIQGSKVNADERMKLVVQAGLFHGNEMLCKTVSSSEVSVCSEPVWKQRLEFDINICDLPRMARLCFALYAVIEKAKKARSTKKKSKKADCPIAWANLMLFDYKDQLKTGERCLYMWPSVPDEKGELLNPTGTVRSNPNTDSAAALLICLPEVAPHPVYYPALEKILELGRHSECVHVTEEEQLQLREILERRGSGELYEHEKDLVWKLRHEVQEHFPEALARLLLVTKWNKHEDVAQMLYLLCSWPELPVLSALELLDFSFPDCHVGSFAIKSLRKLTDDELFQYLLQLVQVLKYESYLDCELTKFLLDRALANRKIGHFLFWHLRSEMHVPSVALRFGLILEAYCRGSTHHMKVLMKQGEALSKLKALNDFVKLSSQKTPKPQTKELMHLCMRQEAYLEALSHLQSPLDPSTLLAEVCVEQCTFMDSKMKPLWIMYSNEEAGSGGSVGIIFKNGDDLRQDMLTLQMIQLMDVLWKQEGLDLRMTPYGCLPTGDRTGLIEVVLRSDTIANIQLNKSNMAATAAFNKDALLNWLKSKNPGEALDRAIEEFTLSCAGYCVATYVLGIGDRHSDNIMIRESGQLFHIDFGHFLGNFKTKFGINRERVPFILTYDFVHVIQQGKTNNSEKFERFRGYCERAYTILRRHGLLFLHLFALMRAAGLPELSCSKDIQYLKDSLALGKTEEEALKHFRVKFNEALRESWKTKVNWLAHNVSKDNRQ
Sequence (P27986 whole entry partner, canonical isoform): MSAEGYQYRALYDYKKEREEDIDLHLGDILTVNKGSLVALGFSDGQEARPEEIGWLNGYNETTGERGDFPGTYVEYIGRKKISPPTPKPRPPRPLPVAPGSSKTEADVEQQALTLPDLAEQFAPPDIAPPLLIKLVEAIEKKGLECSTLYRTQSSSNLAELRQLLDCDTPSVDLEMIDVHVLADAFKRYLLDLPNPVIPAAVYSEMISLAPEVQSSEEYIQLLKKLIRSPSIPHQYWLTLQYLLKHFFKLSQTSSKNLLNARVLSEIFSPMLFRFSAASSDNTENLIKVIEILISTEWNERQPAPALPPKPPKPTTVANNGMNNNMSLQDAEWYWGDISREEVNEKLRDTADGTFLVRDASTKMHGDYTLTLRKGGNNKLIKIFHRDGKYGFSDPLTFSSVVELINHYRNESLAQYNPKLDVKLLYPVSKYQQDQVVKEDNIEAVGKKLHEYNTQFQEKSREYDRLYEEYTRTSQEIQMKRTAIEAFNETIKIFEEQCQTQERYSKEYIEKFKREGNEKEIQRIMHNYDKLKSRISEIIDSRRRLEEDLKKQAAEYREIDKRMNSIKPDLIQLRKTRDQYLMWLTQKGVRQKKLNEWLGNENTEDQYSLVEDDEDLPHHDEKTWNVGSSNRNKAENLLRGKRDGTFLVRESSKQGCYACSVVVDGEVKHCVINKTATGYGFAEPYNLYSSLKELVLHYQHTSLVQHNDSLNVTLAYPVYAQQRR
ASSAY SUMMARY: HTRF PI3K biochemical assay, delta isoform
MEASUREMENT PARAMETERS: 0.3 nM enzyme, 100 uM ATP, 50 uM PIP2; form screened (neutral or TFA salt)
QUANTITY: IC50 (nM)
Numbers only, in nM.

Worked examples, 5 compounds total:
CCn1c(-c2cnc(C)nc2)nc2c(-c3ccc4c(c3)C(C)(C3CCOCC3)C(=O)N4)ncnc21 (single isomer, unassigned) [Compound 1-35]; 5
CCn1c(-c2cnc(C)nc2)nc2c(-c3ccc4c(c3)C(C)(NCC(C)(C)C#N)C(=O)N4)ncnc21 (single isomer, unassigned) [Compound 2-39]; 3
CCn1c(-c2cnc(C)nc2)nc2c(-c3ccc4c(c3)C(C)(NCC3(C#N)CCC3)C(=O)N4)ncnc21 (racemic) [Compound 2-19]; 22
CCn1c(-c2cnc(C)nc2)nc2c(-c3ccc4c(c3)C(C)(NCC3(C)CCC3)C(=O)N4)ncnc21 (racemic) [Compound 2-18]; 8
CCn1c(-c2cnc(C)nc2)nc2c(-c3ccc4c(c3)C3(CCCN3S(C)(=O)=O)C(=O)N4C)ncnc21 (single isomer, unassigned) [Compound 3-24]; 32

Now let's try a different one.
Provide measured IC50 on PI3Kdelta (Homo sapiens (Human), UniProt O00329) for CCn1c(-c2cnc(C)nc2)nc2c(-c3ccc4c(c3)C(C)(CC(C)C)NS4(=O)=O)ncnc21 (single isomer, unassigned) [Compound 4-5] please.
6

====

STUDY TARGET: PI3Kdelta (Homo sapiens (Human), UniProt O00329)
ASSAY SUMMARY: HTRF PI3K biochemical assay, delta isoform
MEASUREMENT PARAMETERS: 0.3 nM enzyme, 100 uM ATP, 50 uM PIP2; form screened (neutral or TFA salt)
What IC50 was measured for each of the following?
Answers are plain numbers, in nM.

Consider the reported IC50 for these compounds:
CCn1c(-c2cnc(C)nc2)nc2c(-c3ccc4c(c3)C(C)(CC3(C)COC3)C(=O)N4)ncnc21 (single isomer, unassigned) [Compound 1-6]; 15
CCn1c(C(F)F)nc2c(-c3ccc4c(c3)C(C)(Cc3ccccc3)C(=O)N4)ncnc21 (single isomer, unassigned) [Compound 1-23]; 27
CCn1c(-c2cnc(C)nc2)nc2c(-c3ccc4c(c3)C(C)(NC[C@H]3CCCO3)C(=O)N4)ncnc21 (mixture of isomers) [Compound 2-22]; 26

Batch: IC50 for all items listed.
1. Cc1ncc(-c2nc3c(-c4ccc5c(c4)C(C)(NCC(C)(C)F)C(=O)N5)ncnc3n2C)cn1 (single isomer, unassigned) [Compound 2-68]
2. CCn1c(-c2cnc(C)nc2)nc2c(-c3cnc4c(c3)C(C)(CC(C)C)C(=O)N4)ncnc21 (single isomer, unassigned) [Compound 1-12]
3. CCn1c(-c2cnc(C)nc2)nc2c(-c3cnc4c(c3)C(C)(CC3CC3)C(=O)N4)ncnc21 (single isomer, unassigned) [Compound 1-14]

2
9
16

====

STUDY TARGET: PI3Kdelta (Homo sapiens (Human), UniProt O00329)
ASSAY SUMMARY: HTRF PI3K biochemical assay, delta isoform
MEASUREMENT PARAMETERS: 0.3 nM enzyme, 100 uM ATP, 50 uM PIP2; form screened (neutral or TFA salt)
QUANTITY: pIC50
Numbers only, as −log10 of the molar value.

Known results for compounds:
CCn1ncc(-c2nc3c(-c4ccc5c(c4)C(C)(CC4CC4)C(=O)N5)ncnc3n2CC)c1C (single isomer, unassigned); 8.40
CCn1c(-c2cnc(C)nc2)nc2c(-c3ccc4c(c3)C(C)(NCC3CC3)C(=O)N4)ncnc21 (single isomer, unassigned) [Compound 2-34]; 7.54

Query compound follows.
Identify the reported pIC50 for the following entry. CCn1c(-c2cnc(C)nc2)nc2c(-c3ccc4c(c3)C(C)(N3CC(C)(O)C3)C(=O)N4)ncnc21 (single isomer, unassigned) [Compound 2-81]
7.59
